Measured viability, T/C by item
Tested on: NCI-H510 multicellular tumor spheroid growth, % test/control
Experiment: Anticancer human tumor NCI-H510 cell line growth inhibition [Asc];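 note: spheroids exposed to agents for 7 days; 100% = DMSO vehicle control wells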
Protocol conditions: second compound 0.0316 µM; first compound 0.00316 µM; hits give low values
Reported endpoint: viability, T/C (%)

>>> endpoint_result("NC1CCC(NC2CC2c2ccccc2)CC1 (stereo not given) + CNC(C)C(=O)NC1CN(S(=O)(=O)c2cccc(S(=O)(=O)N3CCC4CCC(C(=O)NC(c5ccccc5)c5ccccc5)N4C(=O)C(NC(=O)C(C)NC)C3)c2)CCC2CCC(C(=O)NC(c3ccccc3)c3ccccc3)N2C1=O")
92.3
>>> endpoint_result("CCN1CCN(Cc2ccc(Nc3ncc(F)c(-c4cc(F)c5nc(C)n(C(C)C)c5c4)n3)nc2)CC1 + CNC(C)C(=O)NC1CN(S(=O)(=O)c2cccc(S(=O)(=O)N3CCC4CCC(C(=O)NC(c5ccccc5)c5ccccc5)N4C(=O)C(NC(=O)C(C)NC)C3)c2)CCC2CCC(C(=O)NC(c3ccccc3)c3ccccc3)N2C1=O")
108
>>> endpoint_result("COc1c(OCCCN2CCOCC2)ccc2c3n(c(=NC(=O)c4cnc(N)nc4)nc12)CCN3 + CNC(C)C(=O)NC1CN(S(=O)(=O)c2cccc(S(=O)(=O)N3CCC4CCC(C(=O)NC(c5ccccc5)c5ccccc5)N4C(=O)C(NC(=O)C(C)NC)C3)c2)CCC2CCC(C(=O)NC(c3ccccc3)c3ccccc3)N2C1=O")
106
>>> endpoint_result("O=C(c1ccc(F)c(F)c1Nc1ccc(I)cc1F)N1CC(O)([C@@H]2CCCCN2)C1 + CNC(C)C(=O)NC1CN(S(=O)(=O)c2cccc(S(=O)(=O)N3CCC4CCC(C(=O)NC(c5ccccc5)c5ccccc5)N4C(=O)C(NC(=O)C(C)NC)C3)c2)CCC2CCC(C(=O)NC(c3ccccc3)c3ccccc3)N2C1=O")
94.7
>>> endpoint_result("Cn1ncnc1[C@H]1c2n[nH]c(=O)c3cc(F)cc(c23)N[C@@H]1c1ccc(F)cc1 + CNC(C)C(=O)NC1CN(S(=O)(=O)c2cccc(S(=O)(=O)N3CCC4CCC(C(=O)NC(c5ccccc5)c5ccccc5)N4C(=O)C(NC(=O)C(C)NC)C3)c2)CCC2CCC(C(=O)NC(c3ccccc3)c3ccccc3)N2C1=O")
97

Source listed as PubChem BioAssay AID1963438.
